method_description: GHS categories as the set defines them, by LD50: 1 up to 5, 2 up to 50, 3 up to 300, 4 up to 2000, 5 above 2000 mg/kg
test_settings: rat; in vivo; po

# compound, GHS category
rows = [
    ("O=C(Nc1ccccc1)N(Cc1ccc(Cl)cc1)C1CCCC1", 5),
    ("CCC1(CC)COC(Cn2cncn2)(c2cc3ccccc3o2)OC1", 4),
    ("c1ccc(COc2ccc3ccccc3c2)cc1", 5),
    ("CCCCOC(=O)c1ccc(-n2nc(OCCCN(C)C)c3ccccc32)cc1", 4),
    ("NS(=O)(=O)C(F)(F)C(F)(F)C(F)(F)C(F)(F)C(F)(F)C(F)(F)C(F)(F)C(F)(F)F", 3),
    ("CCCCC(CC)C(=O)OOC(C)(C)C (stereo not drawn)", 5),
    ("CC(=O)CC(=O)Nc1cc(C)c(NC(=O)CC(C)=O)cc1C", 5),
    ("COc1ccc2c(c1)CCN(c1ccccc1)C2c1ccc(Br)cc1 (stereo not drawn)", 4),
    ("O=C(c1ccc(Cl)cc1)n1ccnc1-c1ccccc1", 4),
    ("CC(C)(c1ccc(OCC2CO2)cc1)c1ccc(OCC2CO2)cc1 (stereo not drawn)", 4),
    ("CCC(O)OCc1c(Cl)ccc(Cl)c1Cl (stereo not drawn)", 5),
    ("CCCCCCCC(=O)OCCC", 5),
    ("CC(C)=CCN(CC=C(C)C)CCC(C#N)c1cccc2ccccc12 (stereo not drawn)", 4),
    ("CC(Oc1ccc(Oc2ncc(C(F)(F)F)cc2Cl)cc1)C(=O)O (stereo not drawn)", 4),
    ("FC(F)(F)OC(F)(Cl)C(F)(F)Cl (stereo not drawn)", 5),
    ("OC1(c2ccc(-c3ccccc3)cc2)c2ccccc2C2=NCCN21 (stereo not drawn)", 4),
    ("CC(C)C1CCCCC1", 5),
    ("N#Cc1c(Cl)nc(Cl)c(C#N)c1-c1ccccc1", 5),
    ("CCCCCCC(O)CCO (stereo not drawn)", 5),
    ("Cc1cccc(C)c1N(CCCC(=O)O)C(=O)c1ccccc1Cl", 5),
    ("CC1CCN(c2nc3cc(Cl)ccc3o2)CCN1 (stereo not drawn)", 4),
    ("NC(=O)c1cc[n+](CC2=C(C(=O)O)N3C(=O)[C@@H](NC(=O)[C@H](c4ccccc4)S(=O)(=O)[O-])[C@@H]3SC2)cc1", 5),
    ("C=CC(=O)Oc1c(Br)cc(Cl)c2cccnc12", 5),
    ("CCC1(CC)COP(=S)(N(SN(C)C(=O)ON=C(C)SC)C2CCCCC2)OC1", 5),
    ("CCOC(=O)C(=O)Nc1cc(OCCOCc2ccccc2)nc(C)n1", 4),
    ("CN(Cc1ccc(C(C)(C)C)cc1)Cc1cccc2ccccc12", 5),
    ("CC1OC(=O)C(C)OC1=O (stereo not drawn)", 5),
    ("Clc1ccc(Cl)nn1", 3),
    ("Cc1c(S(C)(=O)=O)ccc(C(=O)O)c1Cl", 5),
    ("Nc1ncnc2c1ncn2[C@@H]1O[C@H](COP(=O)(O)OP(=O)(O)OP(=O)(O)O)[C@@H](O)[C@H]1O", 5),
    ("CCN(CC)CCC1=NC(=C2C=CC=CC2=O)NO1", 5),
    ("CCCCCOC1OC(C)C(O)C(O)C1O (stereo not drawn)", 5),
    ("CCCCCCOC(=O)CCC", 5),
    ("CCOC(=O)[C@H](CCc1ccccc1)N[C@H]1CCc2ccccc2N(CC(=O)O)C1=O", 5),
    ("N[C@@H](CC(=O)O)C(=O)O", 5),
    ("NP(N)(=O)Nc1ccccc1[N+](=O)[O-]", 5),
    ("CC1=CC(=O)N(Cc2cccc(CN3C(=O)C=C(C)C3=O)c2)C1=O", 5),
    ("O=C1CCc2c(OCC(O)CN3CCC(Cc4ccccc4)CC3)ccc(Br)c2N1 (stereo not drawn)", 4),
    ("CCCCOC(=O)C=Cc1ccccc1", 5),
    ("C[C@H]1O[C@H](OC[C@H]2O[C@H](O)[C@H](OS(=O)(=O)O)[C@@H](OS(=O)(=O)O)[C@@H]2OS(=O)(=O)O)[C@H](OS(=O)(=O)O)[C@@H](OS(=O)(=O)O)[C@@H]1O", 5),
    ("CCCC(=O)c1ccc(N)c(O)c1", 5),
    ("CCSc1nc(N)c2c(C)coc2n1", 5),
    ("O=C1Nc2ccccc2C1=O", 5),
    ("CCOC(=O)c1nn(-c2ccc(OC)cc2)c2c1CCN(c1ccc(N3CCCCC3=O)cc1)C2=O", 5),
    ("COC[C@@H]1CO[C@@](Cn2ccnc2)(c2cc3cc(Cl)cc(Cl)c3o2)O1", 4),
    ("O=C(O)C(O)C(O)C(O)C(O)C(O)CO (stereo not drawn)", 5),
    ("CC(C=O)C(=O)c1ccc(C2CCCCC2)cc1 (stereo not drawn)", 4),
    ("CCCCCCCCOC(=O)c1ccc(C(=O)OCCCCCCCC)c(C(=O)OCCCCCCCC)c1", 5),
]

---

method_description: GHS categories as the set defines them, by LD50: 1 up to 5, 2 up to 50, 3 up to 300, 4 up to 2000, 5 above 2000 mg/kg
test_settings: rat; in vivo; po

# compound, GHS category
data = [
    ("FC(Cl)C(F)(F)C(F)(F)Cl (stereo not given)", 5),
    ("CC(SCC(=O)O)c1ccc2c(c1)Cc1ccccc1-2 (stereo not given)", 4),
    ("CCC(C)n1ncn(-c2ccc(N3CCN(c4ccc(O)cc4)CC3)cc2)c1=O (stereo not given)", 5),
    ("CCCNC(=O)c1sc(-c2ccc(OC)cc2)nc1C", 5),
    ("Brc1ccc(N/C(=N/C2CCCCC2)c2ccccc2)cc1", 5),
    ("CCCOC(=O)C(C(=O)OCCC)=C1SC2C(S1)N(C)CCN2C (stereo not given)", 4),
    ("O=S(=O)(NCl)c1ccccc1", 4),
    ("CCOC(=O)[C@H](CCc1ccccc1)N[C@@H](C)C(=O)N1CC2(C[C@H]1C(=O)O)SCCS2", 5),
    ("CC1CC(OC(=O)C(C)Oc2ccc(Cl)cc2)CC(C)(C)C1 (stereo not given)", 5),
    ("CC(C)CCCC(C)CCCC(C)CCCCC(C)CCCC(C)CCCC(C)C (stereo not given)", 4),
    ("CCOC(=O)CNc1nc(Cl)nc(NC(C)C)n1", 5),
    ("CCC1Nc2cc(Cl)c(S(N)(=O)=O)cc2S(=O)(=O)N1 (stereo not given)", 5),
    ("c1ccc(OCCOc2ccccc2)cc1", 5),
    ("CN1C(=O)COc2cc(C(=O)c3ccccc3)ccc21", 5),
    ("C=CCN1C(=O)CCc2c(OCC(O)CN3CCC(Cc4ccccc4)CC3)cccc21 (stereo not given)", 4),
    ("COC(=O)Nc1nc2ccc(OCc3ccccc3)cc2[nH]1", 5),
    ("CCCCCCCCCCN(C)C", 5),
    ("C/C=C\\[C@@H]1[C@@H](C(=O)OCc2c(F)c(F)c(COC)c(F)c2F)C1(C)C", 5),
    ("C=C(C)C1CCC(C)=C1CC(C)(C)COC(=O)CC (stereo not given)", 5),
    ("CC(Oc1cccc(Cl)c1)C(=O)O (stereo not given)", 4),
    ("C[C@@H]1CO[C@@](Cn2cncn2)(c2cc3cc(Cl)ccc3o2)O1", 4),
    ("C[C@]12CC[C@H](O)CC1=CC[C@@H]1[C@@H]2CC[C@]2(C)C(=O)CC[C@@H]12", 5),
    ("COc1cc([N+](=O)[O-])ccc1N=NC(C(C)=O)C(=O)Nc1ccccc1OC (stereo not given)", 5),
    ("CCOCC=C(C)CCC=C(C)C", 5),
    ("CC(=O)OCCC(C)CCCC(C)C (stereo not given)", 5),
    ("CCOCC(C)OC(C)=O (stereo not given)", 5),
    ("COC(=O)C(C)CCC(=O)N(C)C (stereo not given)", 5),
    ("CC(=O)O", 5),
    ("Cc1ccc(C(=O)COc2c(C(=O)c3ccc(Cl)c(C)c3Cl)c(C)nn2C)cc1", 5),
    ("CCCOC(C)OCCc1ccccc1 (stereo not given)", 5),
    ("Cc1ccc(C(=O)Nc2ccc(S(=O)(=O)O)cc2)cc1[N+](=O)[O-]", 5),
    ("O=C(O)CNC(c1ccccc1)c1ccccc1", 4),
    ("COc1ccc2c(c1)CC[C@@H]1[C@@H]2CC[C@]2(C)C(=O)CC[C@@H]12", 5),
    ("CC(C)(C)c1ccc(C=O)cc1", 4),
    ("CSC(C)=NOC(=O)N(C)SN(C)C(=O)Oc1ccc(Sc2ccc(OC(=O)N(C)SN(C)C(=O)ON=C(C)SC)cc2)cc1", 4),
    ("CNc1ccc([N+](=O)[O-])cc1", 5),
    ("Cc1cc(Cc2cc(C)cc(C3CCCCC3)c2O)c(O)c(C2CCCCC2)c1", 5),
    ("CC(C)=CCCC(C)CCOC(=O)Cc1ccccc1 (stereo not given)", 5),
    ("CCCCC(CC)C(c1ccc(O)cc1)c1ccc(O)cc1 (stereo not given)", 4),
    ("CCOC(=O)CC(=O)N1CCSC1COc1ccccc1OC (stereo not given)", 5),
    ("NCCNS(=O)(=O)c1cccc2cnccc12", 4),
    ("CCCCCCCCCCCCCC(=O)OCCCC", 5),
    ("CC(c1ccccc1)c1ccc(Nc2ccc(C(C)c3ccccc3)cc2)cc1 (stereo not given)", 5),
    ("COc1ccc(C(=O)Nc2ccccc2)cc1N", 5),
    ("CC(C)COC(=O)Cc1ccccc1", 5),
    ("CN1CC(c2ccn[nH]2)CC2c3cccc4[nH]cc(c34)CC21 (stereo not given)", 4),
    ("C[C@]12C=CC(=O)C=C1CC[C@@H]1[C@@H]2CC[C@@]2(C)[C@H]1CC[C@]2(C)O", 4),
    ("C=COC(=O)CCCCC(C)(C)C", 5),
    ("Cc1cc(O)c2c(O)c(-c3ccc4cc(C)cc(O)c4c3O)ccc2c1", 5),
    ("CCC(Oc1ccc(F)c(C(F)(F)F)c1)C(O)=NCc1ccccc1 (stereo not given)", 5),
]
